- Tested On: UniProt P03951
Structures can show the parent of a compound that is named as a salt.
Property: IC50 (nM)
Note: unit nM is implicit; provide only the numeric part.

1. Cc1ncccc1-c1ccc(C[C@H](NC(=O)[C@H]2CC[C@H](CN)CC2)C(=O)Nc2ccc3c(=O)[nH][nH]c3c2)cc1 [Example 27, hydrochloride] :: 5.6
2. NC[C@H]1CC[C@H](C(=O)N[C@@H](Cc2ccc(-c3cccnc3)cc2)C(=O)Nc2ccc(-c3noc(=O)[nH]3)cc2)CC1 [Example 14, hydrochloride] :: 8.5
3. Cc1cc(N2CCOCC2)ncc1-c1ccc(C[C@H](NC(=O)[C@H]2CC[C@H](CN)CC2)C(=O)Nc2ccc(-c3nn[nH]n3)cc2)cc1 [Example 29, hydrochloride] :: 1.3
4. NC[C@H]1CC[C@H](C(=O)N[C@@H](Cc2ccc(-c3ccnc(N4CCOCC4)c3)cc2)C(=O)Nc2ccc3c(=O)[nH][nH]c3c2)CC1 [Example 36, hydrochloride] :: 7.2
5. CN1CCN(c2ccc(-c3ccc(C[C@H](NC(=O)C4CCC(CN)CC4)C(=O)Nc4ccc(-c5nnn[nH]5)cc4)cc3)cn2)CC1 (stereo partly shown) [Example 54, hydrochloride] :: 7.2
6. COc1ccc(-c2ccc(C[C@H](NC(=O)[C@H]3CC[C@H](CN)CC3)C(=O)Nc3ccc4cn[nH]c4c3)cc2)c(C)n1 [Example 28, hydrochloride] :: 7.8

[Q] Request body: readout IC50, system UniProt P03951, query Cc1nc(N)ccc1-c1ccc(C[C@H](NC(=O)[C@H]2CC[C@H](CN)CC2)C(=O)Nc2ccc(-c3nnn[nH]3)cc2)cc1 [Example 51, hydrochloride] . Return the value.
[A] 3.7

* * *

Assay system human factor XIa (Homo sapiens); read-out recorded as pIC50.
Where a name gives a salt, the structure may show the parent alone.
Note on units: pIC50 is unitless, being -log10 of a concentration expressed in mol/L.

1) CN(C)CCCOc1ccc(-c2ccc(C[C@H](NC(=O)[C@H]3CC[C@H](CN)CC3)C(=O)Nc3ccc(-c4nn[nH]n4)cc3)cc2)cn1 [Example 6, hydrochloride] :: 7.82
2) CN(C)c1ncc(-c2ccc(C[C@H](NC(=O)[C@H]3CC[C@H](CN)CC3)C(=O)Nc3ccc(-c4nn[nH]n4)cc3)cc2)c(OCc2ccccc2)n1 [Example 22, hydrochloride] :: 8.21
3) Cc1nc(N)ncc1-c1ccc(C[C@H](NC(=O)C2CCC(CN)CC2)C(=O)Nc2ccc(-c3nnn[nH]3)cc2)cc1 (some centres unmarked) [Example 55, hydrochloride] :: 8.52
4) NC[C@H]1CC[C@H](C(=O)N[C@@H](Cc2ccc(-c3ccc(C(F)(F)F)nc3)cc2)C(=O)Nc2ccc(-c3nn[nH]n3)cc2)CC1 [Example 18, hydrochloride] :: 8.57
5) NC[C@H]1CC[C@H](C(=O)N[C@@H](Cc2ccc(-c3ccc(Oc4cccnc4)nc3)cc2)C(=O)Nc2ccc(-c3nn[nH]n3)cc2)CC1 [Example 32, hydrochloride] :: 8.62
6) NC[C@H]1CC[C@H](C(=O)N[C@@H](Cc2ccc(-c3cncc(N)c3)cc2)C(=O)Nc2ccc(-c3nnn[nH]3)cc2)CC1 [Example 49, hydrochloride] :: 8.49
7) NC[C@H]1CC[C@H](C(=O)N[C@@H](Cc2ccc(-c3ccnc(N4CCOCC4)c3Cl)cc2)C(=O)Nc2ccc(-c3nn[nH]n3)cc2)CC1 [Example 43, hydrochloride] :: 8.74
8) Cc1cc(N2CCNCC2)ncc1-c1ccc(C[C@H](NC(=O)[C@H]2CC[C@H](CN)CC2)C(=O)Nc2ccc(-c3nn[nH]n3)cc2)cc1 [Example 41, hydrochloride] :: 8.49

[Q] Request body: readout pIC50, system human factor XIa (Homo sapiens), query CN(C)CCCOc1ccc(-c2ccc(C[C@H](NC(=O)[C@H]3CC[C@H](CN)CC3)C(=O)Nc3ccc(-c4noc(=O)[nH]4)cc3)cc2)cn1 [Example 19, hydrochloride] . Return the value.
[A] 7.80

[Q] Request body: readout pIC50, system human factor XIa (Homo sapiens), query NC[C@H]1CC[C@H](C(=O)N[C@@H](Cc2ccc(-c3ccncc3)cc2)C(=O)Nc2ccc(-c3nn[nH]n3)cc2)CC1 [Example 11, hydrochloride] . Return the value.
[A] 8.28

[Q] Request body: readout pIC50, system human factor XIa (Homo sapiens), query NC[C@H]1CC[C@H](C(=O)N[C@@H](Cc2ccc(-c3ccc(NCCN4CCOCC4)nc3)cc2)C(=O)Nc2ccc(-c3nn[nH]n3)cc2)CC1 [Example 16, hydrochloride] . Return the value.
[A] 7.89

* * *

Where a name gives a salt, the structure may show the parent alone.
Assay system human factor XIa (Homo sapiens, UniProt P03951); read-out recorded as IC50.
Note: unit nM is implicit; provide only the numeric part.

1) COc1ccc(-c2ccc(C[C@H](NC(=O)[C@H]3CC[C@H](CN)CC3)C(=O)Nc3ccc4c(=O)[nH][nH]c4c3)cc2)c(C)n1 [Example 30, hydrochloride] :: 6.7
2) CN(C)c1ccc(-c2ccc(C[C@H](NC(=O)[C@H]3CC[C@H](CN)CC3)C(=O)Nc3ccc(-c4nnn[nH]4)cc3)cc2)cn1 [Example 4, hydrochloride] :: 3.8

[Q] Request body: readout IC50, system human factor XIa (Homo sapiens, UniProt P03951), query CC1CN(c2ccc(-c3ccc(C[C@H](NC(=O)C4CCC(CN)CC4)C(=O)Nc4ccc(-c5nn[nH]n5)cc4)cc3)cn2)CC(C)O1 (mixture of isomers) [Example 9, hydrochloride] . Return the value.
[A] 3.6

* * *

Assay system human factor XIa (Homo sapiens, UniProt P03951); read-out recorded as IC50.
Counter-ions that a name gives are not always drawn.
Note: unit nM is implicit; provide only the numeric part.

Example entries and their recorded answers appear below.
1) NC[C@H]1CC[C@H](C(=O)N[C@@H](Cc2ccc(-c3ccc(N4CCOCC4)nc3)cc2)C(=O)Nc2ccc3c(=O)[nH][nH]c3c2)CC1 [Example 24, hydrochloride] :: 3.1
2) Cc1cnccc1-c1ccc(C[C@H](NC(=O)[C@H]2CC[C@H](CN)CC2)C(=O)Nc2ccc3c(=O)[nH][nH]c3c2)cc1 [Example 23, hydrochloride] :: 3.6

Let us move to another entry and its IC50.
[Q] Request body: readout IC50, system human factor XIa (Homo sapiens, UniProt P03951), query CS(=O)(=O)c1cncc(-c2ccc(C[C@H](NC(=O)[C@H]3CC[C@H](CN)CC3)C(=O)Nc3ccc(-c4nn[nH]n4)cc3)cc2)c1 [Example 39, hydrochloride] . Return the value.
[A] 15

* * *

- Tested On: human factor XIa (Homo sapiens)
- Sequence (P03951 388-625 limits assumed): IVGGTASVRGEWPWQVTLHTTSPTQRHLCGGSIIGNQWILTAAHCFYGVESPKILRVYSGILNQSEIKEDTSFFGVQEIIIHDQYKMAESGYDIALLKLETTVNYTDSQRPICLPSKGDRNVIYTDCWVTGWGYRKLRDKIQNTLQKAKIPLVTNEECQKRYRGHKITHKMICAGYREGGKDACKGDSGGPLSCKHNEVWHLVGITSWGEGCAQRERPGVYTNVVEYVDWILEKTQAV
- Sequence (P03951 19-387 partner limits assumed): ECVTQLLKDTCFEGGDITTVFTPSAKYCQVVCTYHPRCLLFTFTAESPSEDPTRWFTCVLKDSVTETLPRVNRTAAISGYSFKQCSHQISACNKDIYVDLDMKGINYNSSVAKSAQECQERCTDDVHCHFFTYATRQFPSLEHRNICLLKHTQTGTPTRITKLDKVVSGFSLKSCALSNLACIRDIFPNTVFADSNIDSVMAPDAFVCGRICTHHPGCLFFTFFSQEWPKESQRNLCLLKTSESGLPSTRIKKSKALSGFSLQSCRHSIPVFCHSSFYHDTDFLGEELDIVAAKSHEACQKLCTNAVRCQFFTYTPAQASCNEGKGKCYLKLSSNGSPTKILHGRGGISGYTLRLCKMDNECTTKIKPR
pIC50: −log10 of the molar value. Where a name gives a salt, the structure may show the parent alone.
Output T for pIC50 not less than 8; output F otherwise.

1) NC[C@H]1CC[C@H](C(=O)N[C@@H](Cc2ccc(-c3ccnc(N4CCNCC4)c3)cc2)C(=O)Nc2ccc(-c3nn[nH]n3)cc2)CC1 [Example 33, hydrochloride] :: F

[Q] Hi team, for Cc1cc(N2CCNCC2)ncc1-c1ccc(C[C@H](NC(=O)[C@H]2CC[C@H](CN)CC2)C(=O)Nc2ccc(-c3nn[nH]n3)c(F)c2)cc1 [Example 47, hydrochloride] , is the recorded pIC50 at or above 8?
[A] T

* * *

Assay system human factor XIa (Homo sapiens, UniProt P03951); read-out recorded as pIC50.
Counter-ions that a name gives are not always drawn.
Note on units: pIC50 is unitless, being -log10 of a concentration expressed in mol/L.

Example entries and their recorded answers appear below.
1. CCOc1ncccc1-c1ccc(C[C@H](NC(=O)[C@H]2CC[C@H](CN)CC2)C(=O)Nc2ccc(-c3nn[nH]n3)cc2)cc1 [Example 42, hydrochloride] :: 8.52
2. Cc1ccncc1-c1ccc(C[C@H](NC(=O)C2CCC(CN)CC2)C(=O)Nc2ccc(-c3nn[nH]n3)cc2)cc1 (some centres unmarked) [Example 57, hydrochloride] :: 8.36
3. CCOC(=O)c1ccc(-c2ccc(C[C@H](NC(=O)[C@H]3CC[C@H](CN)CC3)C(=O)Nc3ccc(-c4nn[nH]n4)cc3)cc2)c(C)n1 [Example 58, hydrochloride] :: 9.10
4. CN(C)CCCOc1ccc(-c2ccc(C[C@H](NC(=O)[C@H]3CC[C@H](CN)CC3)C(=O)Nc3ccc(-c4nn[nH]n4)cc3)cc2F)cn1 [Example 45, hydrochloride] :: 7.89

Let us move to another entry and its pIC50.
[Q] For the compound NC[C@H]1CC[C@H](C(=O)N[C@@H](Cc2ccc(-c3ccnc(N4CCOCC4)c3F)cc2)C(=O)Nc2ccc(-c3nn[nH]n3)cc2)CC1 [Example 46, hydrochloride] , what pIC50 is on record?
[A] 8.43

* * *

Counter-ions that a name gives are not always drawn.
Assay system human factor XIa (Homo sapiens, UniProt P03951); read-out recorded as IC50.
Note: unit nM is implicit; provide only the numeric part.

1. NC[C@H]1CC[C@H](C(=O)N[C@@H](Cc2ccc(-c3ccncc3)cc2)C(=O)Nc2ccc(-c3noc(=O)[nH]3)cc2)CC1 [Example 8, hydrochloride] :: 9.2
2. CN(C)CCCOc1ccc(-c2ccc(C[C@H](NC(=O)C3CCC(CN)CC3)C(=O)Nc3ccc(-c4nnc(Cl)[nH]4)cc3)cc2)cn1 (stereo partly drawn) [Example 56, hydrochloride] :: 9.6

[Q] Request body: readout IC50, system human factor XIa (Homo sapiens, UniProt P03951), query NC[C@H]1CC[C@H](C(=O)N[C@@H](Cc2ccc(-c3cncc(S(=O)(=O)NC4CCNCC4)c3)cc2)C(=O)Nc2ccc(-c3nnn[nH]3)cc2)CC1 [Example 52, hydrochloride] . Return the value.
[A] 6.9
